# TARGET: Menin (Homo sapiens)
# Sequence (O00255 whole entry): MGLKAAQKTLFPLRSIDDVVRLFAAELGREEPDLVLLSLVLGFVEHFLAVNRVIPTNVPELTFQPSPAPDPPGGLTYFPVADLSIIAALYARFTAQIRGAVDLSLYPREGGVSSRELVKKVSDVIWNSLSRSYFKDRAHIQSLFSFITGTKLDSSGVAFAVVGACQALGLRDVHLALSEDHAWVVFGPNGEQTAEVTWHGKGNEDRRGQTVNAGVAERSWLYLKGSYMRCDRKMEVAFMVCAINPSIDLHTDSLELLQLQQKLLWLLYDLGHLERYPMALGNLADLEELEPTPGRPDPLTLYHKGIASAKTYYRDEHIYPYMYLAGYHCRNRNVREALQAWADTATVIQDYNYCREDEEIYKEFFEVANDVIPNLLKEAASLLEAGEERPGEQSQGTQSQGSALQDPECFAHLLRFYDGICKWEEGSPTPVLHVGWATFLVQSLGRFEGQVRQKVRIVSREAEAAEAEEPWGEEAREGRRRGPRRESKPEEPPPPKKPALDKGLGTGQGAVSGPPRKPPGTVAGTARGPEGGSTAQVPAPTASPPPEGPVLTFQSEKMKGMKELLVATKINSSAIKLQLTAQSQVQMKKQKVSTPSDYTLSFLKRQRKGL
pKi: −log10 of the molar value. *1 amine or outer side, *2 acyl side, *3 side chain or, on linkers, in order; H or OH if unused. Where a SMILES comes first, the peptide text is derived from it. Bridges are numbered along the chain shown (N, C = ends). [ ]: non-standard residue; d: D form. Phe(3-Ph) = N[C@@H](Cc1cccc(-c2ccccc2)c1)C(=O)O; hhhhLys = O=C([C@H](CCCCCCCCN[*:3])N[*:1])[*:2]; Ac4c = NC1(C(=O)O)CCC1
READOUT TYPE: pKi

// solved cases for pKi follow
CC(=O)N[C@@H](CCCNC(=N)N)C(=O)N[C@@H](Cc1c[nH]c2ccccc12)C(=O)N[C@H]1CCCCNC(=O)[C@@H]2CCCN2C(=O)[C@H](CCCNC(=N)N)NC(=O)[C@H](C)NC(=O)[C@@H]2CCCN2C(=O)[C@H](Cc2ccccc2)NC1=O (Ac-RWKFPARP; lactam 3-C)	5.48
CC(=O)N[C@@H](CCCNC(=N)N)C(=O)N[C@@H](Cc1c[nH]c2ccccc12)C(=O)N[C@H]1CCCCCCCCNC(=O)[C@@H]2CCCN2C(=O)[C@H](CCCNC(=N)N)NC(=O)[C@H](C)NC(=O)[C@@H]2CCCN2C(=O)[C@H](Cc2ccccc2)NC1=O (Ac-RW[hhhhLys]FPARP; lactam 3-C)	8.16

a = C[C@@H]1NC(=O)[C@@H]2CCCN2C(=O)[C@H](Cc2ccccc2)NC(=O)[C@@H](N)CCCCCCCCNC(=O)[C@@H]2CCCN2C(=O)[C@H](CCCNC(=N)N)NC1=O (H-[hhhhLys]FPARP; lactam 1-C)
b = N=C(N)NCCC[C@@H]1NC(=O)C2(CCC2)NC(=O)[C@@H]2CCCN2C(=O)[C@H](Cc2cccc(-c3ccccc3)c2)NC(=O)[C@@H](N)CCCCCCCCNC(=O)[C@@H]2CCCN2C1=O (H-[hhhhLys][Phe(3-Ph)]P[Ac4c]RP; lactam 1-C)
[Q] Please let me know which one, a or b , has a lower measured pKi value. Please reply using the label of the selected record.
[A] b
(b: 4.85, a: 6.71)

Data credit: ChEMBL document CHEMBL2311406
